Catalogue of inhibition of disassembly readings, one per entry.
system: 26S proteasome (yeast, GFP-tagged, ATP-dependent disassembly); experiment: inhibitors of ATP-driven 26S proteasome dissociation, primary screen, biochemical, bead-based flow cytometry, GFP-tagged proteasome (AID 751); settings: anti-FLAG beads, active compounds read high, concentration not given here;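 also: plate controls were ATP control with full disassembly for no effect and ATP-gamma-S intact proteasomes for full effect; higher percent means more bead fluorescence retained so stronger block of disassembly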
Among all 24,000 compounds or so, about 40 (0.2%) were called active. The sample as a whole holds a higher share of actives than the screen did.

Ask: Look at this compound and give its reported inhibition of disassembly. `N#CCCn1ncc2ccccc21`
Reply: -0.94% (inactive)

Ask: Note, next up: Cc1ccsc1C(C(=O)NC1CCCCC1)N(C(=O)Cc1cccs1)C1CC1 (stereo not drawn)
Reply: 1.54% (inactive)

Ask: Note, next up: COc1ccc(C2C3=C(OC(C)=O)c4ccccc4C3=Nc3c2c(=O)n(C)c(=O)n3C)cc1 (stereo not drawn)
Reply: -0.28% (inactive)

----------
test system: 26S proteasome (yeast, GFP-tagged, ATP-dependent disassembly); assay: inhibitors of ATP-driven 26S proteasome dissociation, primary screen, biochemical, bead-based flow cytometry, GFP-tagged proteasome (AID 751); settings: anti-FLAG beads, active compounds read high, concentration not given here;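 also: plate controls were ATP control with full disassembly for no effect and ATP-gamma-S intact proteasomes for full effect; higher percent means more bead fluorescence retained so stronger block of disassembly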
About 40 (0.2%) of roughly 24,000 compounds were called active. The entries come from a sample that favours actives as a whole.
endpoint: inhibition of disassembly (%)
Respond numerically; units are % and should not be typed.

Previously resolved entries follow.
CCOC(=O)c1c(C)oc2ccc(OCC(=O)N(CC)CC)cc12; 0.35
CCn1cc(C(=O)NC2CCCCCC2)c(=O)c2cc(S(=O)(=O)N3CCCCC3)ccc21; -0.53
CCCNC(=O)Nc1ccccc1C(=O)Nc1ccc(OC)cc1; 0.82

Ask: What measured inhibition of disassembly is associated with `Cc1nonc1NC(=O)c1ccccc1Br` on 26S proteasome (yeast, GFP-tagged, ATP-dependent disassembly)?
Reply: -2.02

Ask: Note, next up: `COc1ccc(CN2CN(C(C)C)CSC2=S)cc1`
Reply: -0.35

Ask: Note, next up: `COc1cccc(-n2c(Cc3cc(=O)[nH]c(=O)[nH]3)nnc2SCC(=O)Nc2ccccc2)c1`
Reply: -1.55

Ask: Note, next up: `CCCOC(=O)Nc1sc2c(c1C(=O)OCC)CCC2`
Reply: 1.34

----------
Catalogue of inhibition of disassembly readings, one per entry.
test system: 26S proteasome (yeast, GFP-tagged, ATP-dependent disassembly); test: inhibitors of ATP-driven 26S proteasome dissociation, primary screen, biochemical, bead-based flow cytometry, GFP-tagged proteasome (AID 751); conditions: anti-FLAG beads, active compounds read high, concentration not given here;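 also: plate controls were ATP control with full disassembly for no effect and ATP-gamma-S intact proteasomes for full effect; higher percent means more bead fluorescence retained so stronger block of disassembly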
The whole screen tested about 24,000 compounds, of which about 40 (0.2%) were called active. Shown is part of a subset that was picked to be rich in actives.
Respond numerically; units are % and should not be typed.

Previously resolved entries follow.
Cc1cc(Nc2ccc(Br)cc2F)n2ncnc2n1; -4.6
CCOCC(=O)Nc1sc2c(c1C(=O)OCC)CCCC2; 1.13
O=C(Nc1nc2ccc(S(=O)(=O)N3CCCC3)cc2s1)C1CCCO1 (stereo unspecified); -0.99
O=C(Cc1nn[nH]n1)NCCC1=CCCCC1; 3.56

Ask: Look at this molecule and give its reported inhibition of disassembly. Cc1noc(/C=C/N(C)C)c1S(=O)(=O)N1CCCC(C(=O)NCc2ccco2)C1 (stereo unspecified)
Reply: -7.75

Ask: Note, next up: `C=CCn1c(COc2ccccc2F)nnc1SCC(=O)N1CC(=O)Nc2ccccc21`
Reply: -0.82

Ask: Note, next up: `O=C(Nc1nsc(-c2ccccc2)n1)c1ccncc1`
Reply: -0.11
